- System: Hepatotoxicity
- experiment: FDA HLAED, lactate dehydrogenase (LDH) increase
- settings: human
readout label: LDH Increase - Activity Score

Please review the entries below; each comes with its answer.
{"compound": "CCC(=O)O[C@@H](O[P@](=O)(CCCCc1ccccc1)CC(=O)N1C[C@H](C2CCCCC2)C[C@H]1C(=O)O)C(C)C", "value observed": "Inactive"}
{"compound": "Nc1nnc(-c2cccc(Cl)c2Cl)c(N)n1", "value observed": "Marginally Active"}
{"compound": "C[C@@H]1C[C@H]2[C@@H]3CCC4=CC(=O)C=C[C@]4(C)[C@@]3(Cl)[C@@H](O)C[C@]2(C)[C@@]1(O)C(=O)CCl", "value observed": "Inactive"}
{"compound": "CO[C@@]1(NC(=O)Cc2cccs2)C(=O)N2C(C(=O)O)=C(COC(N)=O)CS[C@@H]21", "value observed": "Inactive"}
{"compound": "CN(Cc1cnc2nc(N)nc(N)c2n1)c1ccc(C(=O)N[C@@H](CCC(=O)O)C(=O)O)cc1 [METHOTREXATE]", "value observed": "Marginally Active"}

Query block: Look up and report measured LDH Increase - Activity Score for this entry: CCc1nn(CCCN2CCN(c3cccc(Cl)c3)CC2)c(=O)n1CCOc1ccccc1
Result block: Inactive

Query block: Look up and report measured LDH Increase - Activity Score for this entry: CC(C)(C)NCC(O)c1ccc(O)c(CO)n1 (stereo unspecified)
Result block: Inactive
